Let's look at some binders and their measured pKd.
Molecular target: T1, human IL-18BP (human, UniProt O95998 31-194)
T1 construct: UniProt printed as 095998; also called hIL-18BP
T1 sequence: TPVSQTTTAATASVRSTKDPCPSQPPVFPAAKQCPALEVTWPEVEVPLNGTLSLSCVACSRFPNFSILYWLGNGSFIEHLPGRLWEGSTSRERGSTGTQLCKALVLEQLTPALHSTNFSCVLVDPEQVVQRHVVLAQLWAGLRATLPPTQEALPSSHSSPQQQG
Experiment: BLI, apparent KD
# pKd is unitless: minus log10 of the molar concentration; print number only

BINDER	pKd
SA301a HC-I51T (antibody, name in Kabat numbering, V domains shown, IgG1 kappa) VH: QVQLQESGPGLVKPSQTLSLTCTVSGYSITSDYNSHWIRQPPGKGLEWIGYTHYSGSTNYNPSLKSRVTISRDTSKNQFSLKLSSVTAADTAVYYCARNYGSIYVNYFDYWGQGTLVTVSS VL: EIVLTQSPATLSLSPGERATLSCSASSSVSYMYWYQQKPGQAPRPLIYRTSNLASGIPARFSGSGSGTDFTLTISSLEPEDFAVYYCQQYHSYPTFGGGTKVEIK	9.17

query: Fill in the blank: the reported pKd of SA301a HC-Y50I (antibody, name in Kabat numbering, V domains shown, IgG1 kappa) VH: QVQLQESGPGLVKPSQTLSLTCTVSGYSITSDYNSHWIRQPPGKGLEWIGIIHYSGSTNYNPSLKSRVTISRDTSKNQFSLKLSSVTAADTAVYYCARNYGSIYVNYFDYWGQGTLVTVSS VL: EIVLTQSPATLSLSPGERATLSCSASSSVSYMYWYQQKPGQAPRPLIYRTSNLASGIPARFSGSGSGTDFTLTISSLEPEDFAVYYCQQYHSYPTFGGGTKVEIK is ____.
result: 8.47
